Would you mind telling me the reported pIC50 of each entry?
# tested-target: BK2 receptor sites in guinea pig ileum (Cavia porcellus, UniProt O70526)
# Construct: The tissue is cut into small pieces and homogenized in 20 volumes of homogenization buffer; animals from Charles River)
# Sequence (O70526 whole entry): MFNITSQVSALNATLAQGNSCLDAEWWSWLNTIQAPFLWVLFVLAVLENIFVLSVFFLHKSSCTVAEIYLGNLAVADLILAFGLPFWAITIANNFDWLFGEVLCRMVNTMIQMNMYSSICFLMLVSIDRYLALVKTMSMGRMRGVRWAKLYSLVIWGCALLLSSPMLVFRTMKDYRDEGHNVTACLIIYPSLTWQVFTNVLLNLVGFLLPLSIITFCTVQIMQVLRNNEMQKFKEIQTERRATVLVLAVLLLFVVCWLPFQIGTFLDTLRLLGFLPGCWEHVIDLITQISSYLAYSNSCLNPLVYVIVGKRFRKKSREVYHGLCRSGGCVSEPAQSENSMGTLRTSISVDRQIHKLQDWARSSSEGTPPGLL
# method-notes: Bradykinin Receptor Binding Assay (competition with 3H-bradykinin for BK2 receptor sites in guinea pig ileum)
# cond: 80 pM 3H-BK, guinea pig ileum homogenate, 90 min, 25° C., pH 6.8; read-out: Bradykinin Binding in G.P. ileum, IC50
Value format note: pIC50 is -log10 of concentration (mol/L); just state the number.

For record COc1cccc2c(Nc3ccc(C(=O)NC4CCN(Cc5ccccc5)CC4)cc3)c(C(=O)NC3CCN(CCc4ccccc4)CC3)cnc12 [Ex. 12] the listed pIC50 is 6.17

pIC50 reading for CCN(CC)C(=O)c1cccc(CN2CCC(NC(=O)c3cnc4c(OC)cccc4c3Nc3ccc(C(=O)NC4CCN(Cc5ccccc5)CC4)cc3)CC2)c1 [Ex. 11] : 5.80

So for COc1cccc2c(Nc3ccc(C(=O)NC4CCN(Cc5ccccc5)CC4)cc3)c(C(=O)NC3CCN(Cc4ccc(C(C)(C)C)cc4)CC3)cnc12 [Ex. 1] , the logged pIC50 turned out to be 6.37

// COc1cccc2c(Nc3ccc(C(=O)NC4CCN(Cc5ccccc5)CC4)cc3)c(C(=O)NC3CCN(Cc4cccc(C(F)(F)F)c4)CC3)cnc12 [Ex. 16] : pIC50 value = 6.60

Reported pIC50 of COc1cccc2c(Nc3ccc(C(=O)NC4CCN(Cc5ccccc5)CC4)cc3)c(C(=O)N(C)C3CCN(C)CC3)cnc12 [Ex. 14] : 5.85

The compound listed as COc1cccc2c(Nc3ccc(C(=O)NC4CCN(Cc5ccccc5)CC4)cc3)c(C(=O)NC3CCN(Cc4ccccc4)CC3)cnc12 [Ex. 3] shows pIC50 equal to 7.03

Data point: COc1cccc(CN2CCC(NC(=O)c3cnc4c(OC)cccc4c3Nc3ccc(C(=O)NC4CCN(Cc5ccccc5)CC4)cc3)CC2)c1 [Ex. 15] ; pIC50 = 6.66

get_value(item= O=C(NC1CCN(Cc2ccccc2)CC1)c1ccc(Nc2c(C(=O)NC3CCN(Cc4ccccc4)CC3)cnc3cc(Cl)ccc23)cc1 [Ex. 17] , readout=pIC50) returns 6.37

Measured pIC50, CCN(CC)C(=O)CCCCCN1CCC(N(Cc2ccc(Nc3c(C(=O)NC4CCN(Cc5ccccc5)CC4)cnc4c(OC)cccc34)cc2)C(=O)CCC2CCCC2)CC1 [Ex. 6] : 5.84

Value of pIC50 reported for the compound CCN(CCN(C)C)C(=O)c1cnc2c(OC)cccc2c1Nc1ccc(C(=O)NC2CCN(Cc3ccccc3)CC2)cc1 [Ex. 5] is 5.54

The recorded pIC50 for COc1cccc2c(Nc3ccc(C(=O)NC4CCN(Cc5ccccc5)CC4)cc3)c(C(=O)NCCN(C)C)cnc12 [Ex. 4] is 5.57
